run.description: in vitro
condition.parameters: human
measure: CC50 (µM)

smiles_record=COc1cc(-c2nc(-c3cccs3)c(-c3ccccc3)[nH]2)cc(OC)c1O measured_value=15.1

----------
Test system: WNV
run.description: Antiviral activity, virus yield by plaque assay (WNV)
Type: cell-based
condition.parameters: West Nile virus; HeLa cells, MOI 1 PFU/cell, virus yield at 24 h post-infection
measure: EC50 (µM)

molecule="COc1cc(-c2nc(-c3cccs3)c(-c3ccccc3)[nH]2)cc(OC)c1O [DPTIP]" measure=EC50 reading_unit=µM measured_value=2.81

----------
Tested on: ZIKV
run.description: Antiviral activity, virus yield by plaque assay (ZIKV)
Type: cell-based
condition.parameters: Zika virus, HeLa, 24 h, read-out: EC50 ZIKV
pEC50: −log10 of the molar value.
measure: pEC50

smiles_record=COc1cc(-c2nc(-c3cccs3)c(-c3ccccc3)[nH]2)cc(OC)c1O measured_value=5.74

----------
run.description: in vitro
condition.parameters: African green monkey
measure: CC50

smiles_record=COc1cc(-c2nc(-c3cccs3)c(-c3ccccc3)[nH]2)cc(OC)c1O measured_value="54.8 µM"

----------
Tested on: ZIKV
run.description: Antiviral activity, virus yield by plaque assay (ZIKV)
Assay type: cell-based
condition.parameters: Zika virus, Vero, 24 h, read-out: EC50 ZIKV
measure: EC50

smiles_record=COc1cc(-c2nc(-c3cccs3)c(-c3ccccc3)[nH]2)cc(OC)c1O measure=EC50 measured_value="1560 nM"
